The measurements presented in this section are drawn from ChEMBL document CHEMBL1151027.

Listing of recorded IC50 by entry.
- Assay System: Human immunodeficiency virus type 1 protease (Human immunodeficiency virus 1, UniProt Q72874)
- Measurement Notes: Inhibitory activity if the compound was determined against HIV protease
Give the value, in units of nM, as a plain number.

- CC(C)[C@H](NC(=O)[C@H](Cc1cccc2ccccc12)CS(=O)(=O)C(C)(C)C)C(=O)NCP(=O)(CNC(=O)[C@@H](NC(=O)[C@H](Cc1cccc2ccccc12)CS(=O)(=O)C(C)(C)C)C(C)C)NN: 8.5
- COP(=O)(CNC(=O)[C@@H](NC(=O)[C@H](Cc1cccc2ccccc12)CS(=O)(=O)C(C)(C)C)C(C)C)CNC(=O)[C@@H](NC(=O)[C@H](Cc1cccc2ccccc12)CS(=O)(=O)C(C)(C)C)C(C)C: 950
- CC(C)[C@H](NC(=O)[C@H](Cc1cccc2ccccc12)CS(=O)(=O)C(C)(C)C)C(=O)N[C@H](Cc1ccccc1)P(N)(=O)[C@@H](Cc1ccccc1)NC(=O)[C@@H](NC(=O)[C@H](Cc1cccc2ccccc12)CS(=O)(=O)C(C)(C)C)C(C)C: 1
- CC(C)[C@H](NC(=O)[C@H](Cc1cccc2ccccc12)CS(=O)(=O)C(C)(C)C)C(=O)NC(Cc1ccccc1)P(N)(=O)C(Cc1ccccc1)NC(=O)[C@@H](NC(=O)[C@H](Cc1cccc2ccccc12)CS(=O)(=O)C(C)(C)C)C(C)C (single isomer, unassigned): 250
- CC(C)[C@H](NC(=O)[C@H](Cc1cccc2ccccc12)CS(=O)(=O)C(C)(C)C)C(=O)NCP(=O)(O)CNC(=O)[C@@H](NC(=O)[C@H](Cc1cccc2ccccc12)CS(=O)(=O)C(C)(C)C)C(C)C: 1.1

// query Quick one: IC50 of "CC(C)[C@H](NC(=O)[C@H](Cc1cccc2ccccc12)CS(=O)(=O)C(C)(C)C)C(=O)NCP(N)(=O)CNC(=O)[C@@H](NC(=O)[C@H](Cc1cccc2ccccc12)CS(=O)(=O)C(C)(C)C)C(C)C" ?
// result 5.5

// query Quick one: IC50 of "CC(C)[C@H](NC(=O)[C@H](Cc1cccc2ccccc12)CS(=O)(=O)C(C)(C)C)C(=O)N[C@H](Cc1ccccc1)P(=O)(O)[C@@H](Cc1ccccc1)NC(=O)[C@@H](NC(=O)[C@H](Cc1cccc2ccccc12)CS(=O)(=O)C(C)(C)C)C(C)C" ?
// result 85

// query Quick one: IC50 of CC(C)[C@H](NC(=O)[C@H](Cc1cccc2ccccc12)CS(=O)(=O)C(C)(C)C)C(=O)NC(Cc1ccccc1)P(=O)(O)C(Cc1ccccc1)NC(=O)[C@@H](NC(=O)[C@H](Cc1cccc2ccccc12)CS(=O)(=O)C(C)(C)C)C(C)C (single isomer, unassigned) ?
// result 0.5
